Target: Epidermal growth factor receptor (Homo sapiens, UniProt P00533, DELE746/T790M)
Sequence (P00533 whole entry E746del/T790M, looked up): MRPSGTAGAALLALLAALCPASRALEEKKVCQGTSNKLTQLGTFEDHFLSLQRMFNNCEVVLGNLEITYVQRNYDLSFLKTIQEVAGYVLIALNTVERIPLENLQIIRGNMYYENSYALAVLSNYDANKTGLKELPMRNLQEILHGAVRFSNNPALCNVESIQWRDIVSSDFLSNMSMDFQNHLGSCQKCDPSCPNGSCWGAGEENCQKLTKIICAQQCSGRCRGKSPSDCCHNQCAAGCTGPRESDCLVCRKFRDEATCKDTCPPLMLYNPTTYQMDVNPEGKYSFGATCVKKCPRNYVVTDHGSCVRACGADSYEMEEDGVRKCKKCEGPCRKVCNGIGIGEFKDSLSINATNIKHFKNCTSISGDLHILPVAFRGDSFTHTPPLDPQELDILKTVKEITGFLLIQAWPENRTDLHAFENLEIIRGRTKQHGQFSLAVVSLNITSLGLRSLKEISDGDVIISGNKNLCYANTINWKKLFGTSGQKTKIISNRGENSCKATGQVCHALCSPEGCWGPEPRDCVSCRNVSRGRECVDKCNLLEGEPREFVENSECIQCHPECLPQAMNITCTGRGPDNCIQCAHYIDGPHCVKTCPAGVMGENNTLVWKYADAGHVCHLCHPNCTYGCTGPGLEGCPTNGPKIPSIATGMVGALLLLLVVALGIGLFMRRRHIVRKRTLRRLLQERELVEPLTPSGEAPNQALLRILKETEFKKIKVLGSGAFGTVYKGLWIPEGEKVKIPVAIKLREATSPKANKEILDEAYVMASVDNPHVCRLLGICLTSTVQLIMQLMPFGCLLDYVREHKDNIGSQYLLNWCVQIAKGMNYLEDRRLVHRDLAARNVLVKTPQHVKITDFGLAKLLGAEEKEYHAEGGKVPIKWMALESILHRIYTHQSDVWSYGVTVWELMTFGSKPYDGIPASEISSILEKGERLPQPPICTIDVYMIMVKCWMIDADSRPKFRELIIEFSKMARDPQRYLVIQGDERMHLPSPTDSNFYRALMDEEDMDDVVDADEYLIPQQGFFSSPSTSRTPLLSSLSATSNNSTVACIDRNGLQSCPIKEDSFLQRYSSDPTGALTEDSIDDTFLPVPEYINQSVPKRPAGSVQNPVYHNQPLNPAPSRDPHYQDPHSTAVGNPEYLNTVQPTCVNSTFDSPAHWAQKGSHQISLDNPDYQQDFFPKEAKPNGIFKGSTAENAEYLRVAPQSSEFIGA
Assay type: protein assay
propertyName: IC50 (nM)

Here are 3 compounds together with their reported answers.
# compoundStructureString, IC50 [nM]
data = [
    ("CN(C)C/C=C/C(=O)Nc1cccc(Nc2nc(N/N=C/c3cn(Cc4ccccc4)c4ccccc34)ncc2Cl)c1", 760),
    ("C/C(=N\\Nc1ncc(Cl)c(Nc2cccc(NC(=O)/C=C/CN(C)C)c2)n1)c1ccc(F)cc1F", 1250),
    ("C=CC(=O)Nc1cccc(Nc2nc(N/N=C(\\C)c3ccc(F)cc3)ncc2Cl)c1", 1290),
]

a: C=CC(=O)Nc1cccc(Nc2nc(N/N=C/c3ccc(F)cc3)ncc2Cl)c1
b: CN(C)C/C=C/C(=O)Nc1cccc(Nc2nc(N/N=C/c3ccc(F)cc3F)ncc2Cl)c1
c: C=CC(=O)Nc1cccc(Nc2nc(N/N=C/c3ccccc3F)ncc2Cl)c1
Q: # rank_down: sort by IC50, max first Write out the labels following the order that was asked for.
A: b, c, a
(b: 5110 nM, c: 1910 nM, a: 570 nM)

* * *

System: A549
Experiment: Antiproliferative activity against human A549 cells harboring wild type EGFR/k-Ras mutation after 72 hrs by MTT assay
Assay type: functional, cell-based
Conditions: A549, 72 h
propertyName: IC50 (µM)

Look over these answered cases.
# compoundStructureString, scaleUnit, quantitativeReadout
records = [
    ("C/C(=N\\Nc1ncc(Cl)c(Nc2cccc(NC(=O)/C=C/CN(C)C)c2)n1)c1ccc(F)cc1F", "µM", 5.57),
    ("Nc1cccc(Nc2nc(N/N=C/c3ccc(F)cc3)ncc2Cl)c1", "µM", 13.7),
]

1: C=CC(=O)Nc1cccc(Oc2nc(Nc3ccc(N4CCN(C)CC4)cc3OC)ncc2Cl)c1
2: C/C(=N\Nc1ncc(Cl)c(Nc2cccc(NC(=O)/C=C/CN(C)C)c2)n1)c1ccccn1
3: C=CC(=O)Nc1cccc(Nc2nc(NNC(=O)c3ccc(OC)cc3)ncc2Cl)c1
Q: Highest IC50 first, then in falling order down to the smallest. Ranked list of labels, please, in the requested order.
A: 3, 1, 2
(3: 26 µM, 1: 1.87 µM, 2: 0.83 µM)

* * *

Tested on: A549
Assay: Antiproliferative activity against human A549 cells harboring wild type EGFR/k-Ras mutation after 72 hrs by MTT assay
Format: functional, cell-based
Conditions: A549, 72 h
propertyName: IC50 (µM)

a: C/C(=N\Nc1ncc(Cl)c(Nc2cccc(NC(=O)/C=C/CN(C)C)c2)n1)c1cccnc1
b: CN(C)C/C=C/C(=O)Nc1cccc(Nc2nc(N/N=C/c3ccncc3)ncc2Cl)c1
Q: Parameter check: reported IC50 is higher for which label, a or b ? # respond with the chosen item's label
A: b

P: CN(C)C/C=C/C(=O)Nc1cccc(Nc2nc(N/N=C/c3ccc(F)cc3F)ncc2Cl)c1
Q: C=CC(=O)Nc1cccc(Nc2nc(N/N=C(\C)c3ccc(F)cc3)ncc2Cl)c1
R: CN(C)C/C=C/C(=O)Nc1cccc(Nc2nc(N/N=C/c3c[nH]c4ccccc34)ncc2Cl)c1
Q: # rank by IC50, ascending (min first) When ranking, write the labels in the order the request describes.
A: P, Q, R

I: CN(C)C/C=C/C(=O)Nc1cccc(Nc2nc(N/N=C/c3cn(Cc4ccccc4)c4ccccc34)ncc2Cl)c1
II: C/C(=N\Nc1ncc(Cl)c(Nc2cccc(NC(=O)/C=C/CN(C)C)c2)n1)c1ccc(F)cc1
III: C=CC(=O)Nc1cccc(Nc2nc(N/N=C(\C)c3ccc(F)cc3F)ncc2Cl)c1
IV: C=CC(=O)Nc1cccc(Nc2nc(N/N=C(\C)c3ccc(C)cc3)ncc2Cl)c1
Q: Form: Sort by [IC50] Order [ ascending ] # answer = labels listed in requested order
A: III, I, IV, II

a: COc1ccc(/C(C)=N/Nc2ncc(Cl)c(Nc3cccc(NC(=O)/C=C/CN(C)C)c3)n2)cc1
b: C=CC(=O)Nc1cccc(Nc2nc(N/N=C(\C)c3cccc(OC)c3)ncc2Cl)c1
c: C/C(=N\Nc1ncc(Cl)c(Nc2cccc(NC(=O)/C=C/CN(C)C)c2)n1)c1ccncc1
Q: Rank ascending by IC50. Dear reader, please state the labels in the requested order.
A: a, b, c
(a: 7.12 µM, b: 10.3 µM, c: 34.9 µM)
